Field: Fold improvement (KD, to pVH/pVL). Provide a value for each of the binders that follow.
- tested-target: T1, full length recombinant human 2N4R tau (human, UniProt P10636 1-758)
- T1 construct: bought from rPeptide; pHrodo Red maleimide-labelled where it stands in uptake assays; also called tau1-441; full length tau
- T1 sequence (P10636 other isoform, or with tags, fused parts or gaps limits assumed): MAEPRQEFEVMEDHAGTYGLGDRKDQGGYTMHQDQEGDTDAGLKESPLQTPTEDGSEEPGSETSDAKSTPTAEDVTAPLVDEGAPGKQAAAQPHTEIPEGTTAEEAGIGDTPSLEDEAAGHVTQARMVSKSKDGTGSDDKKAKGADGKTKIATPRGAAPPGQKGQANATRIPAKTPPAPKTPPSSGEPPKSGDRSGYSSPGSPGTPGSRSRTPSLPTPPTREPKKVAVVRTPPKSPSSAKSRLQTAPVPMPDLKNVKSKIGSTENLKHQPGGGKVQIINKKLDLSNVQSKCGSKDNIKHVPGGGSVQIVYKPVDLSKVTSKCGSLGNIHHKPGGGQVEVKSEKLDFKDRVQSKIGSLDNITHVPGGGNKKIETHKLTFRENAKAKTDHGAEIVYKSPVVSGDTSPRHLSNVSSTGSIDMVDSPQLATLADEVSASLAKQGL
- assay-remarks: SPR MCK, IgG on Protein A, tau in flow at 100 µL/min

Examples from the recorded data:
[[record]]
binder = "#44_VH4VK4_H06/pVL (antibody, V domains shown, also called Clone VH4_H06; #44_VH4_H06) VH: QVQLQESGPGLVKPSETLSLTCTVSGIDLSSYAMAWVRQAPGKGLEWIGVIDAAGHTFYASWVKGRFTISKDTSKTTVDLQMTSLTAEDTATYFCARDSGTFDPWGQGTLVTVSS VL: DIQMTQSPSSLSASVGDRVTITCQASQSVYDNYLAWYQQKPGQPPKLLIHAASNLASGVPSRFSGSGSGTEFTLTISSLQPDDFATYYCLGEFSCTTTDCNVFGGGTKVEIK"
readout_type = "Fold improvement (KD, to pVH/pVL)"
reading = 5

[[record]]
binder = "#44_VH4VK4_H02/pVL (antibody, V domains shown, also called Clone VH4_H02; #44_VH4_H02) VH: QVQLQESGPGLVKPSETLSLTCTVSGIDLSSYAMAWVRQAPGKGLEWIGCIDRRGGTFYASWVKGRFTISKDTSKTTVDLQMTSLTAEDTATYFCARDRGDFDVWGQGTLVTVSS VL: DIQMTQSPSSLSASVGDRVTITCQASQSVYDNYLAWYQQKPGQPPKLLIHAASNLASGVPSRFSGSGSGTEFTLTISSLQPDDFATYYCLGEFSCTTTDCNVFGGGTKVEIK"
readout_type = "Fold improvement (KD, to pVH/pVL)"
reading = 5.1


Now take the following binder into account.
GET /values?readout=Fold improvement (KD, to pVH/pVL)&item= #44_VH4VK4_H04/pVL (antibody, V domains shown, also called VH04/pVL; Clone VH4_H04) VH: QVQLQESGPGLVKPSETLSLTCTVSGIDLSSYAMAWVRQAPGKGLEWIGCIDRRGGTFYASWVKGRFTISKDTSKTTVDLQMTSLTAEDTATYFCARDAGSFHPWGQGTLVTVSS VL: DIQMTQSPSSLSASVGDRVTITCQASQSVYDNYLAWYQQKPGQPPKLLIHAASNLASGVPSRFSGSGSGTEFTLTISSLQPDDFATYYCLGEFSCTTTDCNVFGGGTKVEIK
10.5

The reported measurements were obtained from patent US20250270301A1.
